target: pyroptotic cytomembranes, which contain GSDMD-NT pores (Homo sapiens, UniProt P57764); assay: Biolayer interferometry, pyroptotic cytomembranes; format: binding
Sequence (P57764 1-275 limits assumed): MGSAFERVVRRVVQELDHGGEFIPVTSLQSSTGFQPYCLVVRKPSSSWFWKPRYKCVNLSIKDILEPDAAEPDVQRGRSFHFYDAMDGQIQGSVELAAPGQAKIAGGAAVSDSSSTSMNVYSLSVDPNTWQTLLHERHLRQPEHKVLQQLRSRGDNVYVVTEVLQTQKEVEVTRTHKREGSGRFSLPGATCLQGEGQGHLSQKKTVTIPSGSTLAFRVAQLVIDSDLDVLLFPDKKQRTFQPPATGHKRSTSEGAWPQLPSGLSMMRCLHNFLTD
No end group written: not given here. *: point of attachment. Biotin = O=C1N[C@H]2[C@H](CS[C@H]2CCCCC(=O)*)N1; Ahx = NCCCCCC(=O)O
metric name: Kd (nM)
State just the number; it will be interpreted in nM.

Ask | # return Kd for {Biotin-Ahx-Ahx}-SLEEFAKRVVEELVKEFNLDKRQESYLEMSALIQAQMGISERIIEIVLRHAAQTLK [Biotinylated SK56] , test system: pyroptotic cytomembranes, which contain GSDMD-NT pores (Homo sapiens, UniProt P57764)
Reply | 10.9
